Reference for the values: patent US8754073B2

target: PDE4B (Homo sapiens, UniProt Q07343); test: Scintillation Proximity Assay (SPA) of PDE4B enzyme activity ([H3]-cAMP cleavage); format: biochemical; conditions: test substance 1 μM; one-hour incubation of [H3]-cAMP with PDE4B enzyme at 30° C.
Sequence (Q07343 whole entry, species assumed): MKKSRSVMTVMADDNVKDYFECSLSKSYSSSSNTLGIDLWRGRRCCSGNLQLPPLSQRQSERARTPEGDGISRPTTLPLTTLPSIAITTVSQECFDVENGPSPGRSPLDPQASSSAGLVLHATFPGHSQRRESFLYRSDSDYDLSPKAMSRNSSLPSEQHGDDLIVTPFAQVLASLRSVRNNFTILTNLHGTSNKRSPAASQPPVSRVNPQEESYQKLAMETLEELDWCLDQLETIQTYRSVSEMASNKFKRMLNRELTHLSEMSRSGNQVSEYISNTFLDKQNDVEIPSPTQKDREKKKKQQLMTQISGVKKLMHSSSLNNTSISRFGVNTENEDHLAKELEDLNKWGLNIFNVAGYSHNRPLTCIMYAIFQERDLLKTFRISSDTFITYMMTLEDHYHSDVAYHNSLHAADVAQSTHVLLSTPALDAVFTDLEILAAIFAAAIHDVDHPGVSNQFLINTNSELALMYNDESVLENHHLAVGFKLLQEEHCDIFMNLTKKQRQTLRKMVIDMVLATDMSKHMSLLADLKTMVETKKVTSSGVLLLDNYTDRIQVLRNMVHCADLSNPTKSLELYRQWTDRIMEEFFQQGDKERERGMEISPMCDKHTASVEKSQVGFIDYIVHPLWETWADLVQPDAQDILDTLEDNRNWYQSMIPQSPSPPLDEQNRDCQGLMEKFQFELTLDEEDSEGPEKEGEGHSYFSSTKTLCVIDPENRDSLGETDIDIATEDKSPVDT
Readout Type: inhibition at 1 µM (%)

Guide cases for inhibition at 1 µM, answers given:
So what's the measured inhibition at 1 µM for this one? CN1C[C@@H](Nc2nc(N3CCC(c4ccc(C#N)cc4)CC3)nc3c2[S+]([O-])CC3)CCC1=O (stereo partly shown)
96

Give the measured inhibition at 1 µM of CC(C)[C@H](CO)Nc1nc(N2CCC(c3ccc(C#N)cc3)CC2)nc2c1[S+]([O-])CC2 (stereo partly shown) .
94

Please give the measured inhibition at 1 µM for this compound: [O-][S+]1CCc2nc(N3CCC(c4cc5ccccc5o4)CC3)nc(NC3CCOCC3)c21 (stereo not shown)
96

What inhibition at 1 µM value was documented for this compound, N#Cc1ccc(C2CCN(c3nc4c(c(NC5CCOCC5)n3)[S+]([O-])CC4)CC2)cc1 (stereo not shown) ?
96

// returns reported inhibition at 1 µM for input Cc1noc(C2CCN(c3nc4c(c(N[C@@H](CO)C(C)C)n3)[S+]([O-])CC4)CC2)n1 (stereo partly shown)
85

// inhibition at 1 µM lookup, key: CCc1[nH]c2ccc(F)cc2c1C1CCN(c2nc3c(c(N[C@H]4CCC(=O)N(C)C4)n2)[S+]([O-])CC3)CC1 (stereo partly shown)
96

Please give the measured inhibition at 1 µM for this compound: [O-][S+]1CCc2nc(N3CCC(c4cccc(F)c4)CC3)nc(NC3CCOCC3)c21 (stereo not shown)
94

Find the recorded inhibition at 1 µM belonging to CS(=O)(=O)N1CC2(CCN(c3nc4c(c(Nc5cccc(F)c5)n3)[S+]([O-])CC4)CC2)c2ccccc21 (stereo not shown) and report it.
95

[1] [O-][S+]1CCc2nc(N3CCC(c4ccccc4F)CC3)nc(NC3CCOCC3)c21 (stereo not shown)
[2] O=C1Nc2ccccc2C2(CCN(c3nc4c(c(NC5CCOCC5)n3)[S+]([O-])CC4)CC2)N1 (stereo not shown)
Response body: label of entry with the larger inhibition at 1 µM; valid values 1 , 2 . Let me know the label of the one you choose.
1
(1: 92%, 2: 62%)

[P] [O-][S+]1CCc2nc(N3CCC(c4c[nH]c5ccccc45)CC3)nc(NC3(CO)CC3)c21 (stereo not shown)
[Q] CC(C)[C@H](CO)Nc1nc(N2CCC3(CC2)CN(S(C)(=O)=O)c2ccccc23)nc2c1[S+]([O-])CC2 (stereo partly shown)
Would you mind telling me which has the lower recorded inhibition at 1 µM between P and Q ? Mark your answer with the label of the selected entry.
Q
